Ref: PubChem BioAssay (NCI)

- Assay Overview: NCI Yeast Anticancer Drug Screen. Data for the mec2-1 strain (AID 157)
- Condition Info: S. cerevisiae mec2-1 strain, at 50.0 µM
The panel holds about 79,000 compounds, 15% with a hit somewhere; the sample as a whole holds those more often. Calls of active or inactive are those of the source. Rule as the data show it: active = growth inhibition above about 70%; inactive = the rest.
Answer with one of the outcomes active, inactive

Previously resolved entries follow.
- CCOC(=O)C1CCN(Cc2ccccc2)CC1=O (stereo unspecified): active
- CC(=O)c1c(O)ccc2nc3ccccc3nc12: active
- Cc1ccc(-c2c(C#N)c(S)n(NS(=O)(=O)c3ccccc3)c(=O)c2C#N)cc1: active

input: Returns: the outcome recorded for O=C(CC(O)(C(F)(F)F)C(F)(F)Cl)CC(O)(C(F)(F)F)C(F)(F)Cl (stereo unspecified) in this assay.
output: active

input: Returns: the outcome recorded for "CN(C)C(=S)N/N=C/c1ccccn1" in this assay.
output: active

input: Returns: the outcome recorded for "CCN(CC)CCC(=O)/C=C/c1ccc(C)cc1" in this assay.
output: inactive

###

- Assay Overview: NCI Yeast Anticancer Drug Screen. Data for the mlh1 rad18 strain (AID 175)
- Condition Info: S. cerevisiae mlh1 rad18 strain growth inhibition; at 5.0 µM (retest, dose inferred, filed as 0.5)
About 79,000 compounds went through this panel and 15% of them were active in at least one assay; those are over-represented in the sample as a whole. The source made the active and inactive calls. Rule as the data show it: active = growth inhibition above about 70%; inactive = the rest.
Answer with one of the outcomes active, inactive

* CCOC(=O)c1c(C)n(C)c2c1nnc1ccccc12 | inactive

input: Returns: the outcome recorded for "O=[N+]([O-])c1cc(Br)cc2c1nc(NCCCO)c1ccccc12" in this assay.
output: inactive

input: Returns: the outcome recorded for CCC(c1ccc(OC)cc1)C(CC)c1ccc(O)c(CN(C)C)c1 (configuration not stated) in this assay.
output: inactive

###

Below, each entry is listed alongside its reported growth inhibition.
- Assay Overview: NCI Yeast Anticancer Drug Screen. Data for the mlh1 rad18 strain (AID 175)
- Condition Info: S. cerevisiae mlh1 rad18 strain growth inhibition; at 5.0 µM (retest, dose inferred, filed as 0.5); stronger effect = higher value
Compounds without any hit were thinned out: in the full panel of roughly 79,000, 15% have a hit.
Hi! Could you send only the number? It should be in %, unit omitted.

* COc1cccc2c1C(=O)c1c(O)c3c(c(O)c1C2=O)CC(O)(C(C)=O)CC3OC1OC(COC(C)=O)C(OC(C)=O)C(OC(C)=O)C1OC(C)=O (stereo not given) | 3
* OC(C1CCC=NN1C(O)(C(F)(F)F)C(F)(F)F)(C(F)(F)F)C(F)(F)F (stereo not given) | 9
* CSC1=NSC(c2ccccc2)=C(c2ccccc2)S1 | 5
* CN(C)CC1CCC2=C(C1=O)C(c1ccc(Cl)c(Cl)c1)C1=C(CCC(CN(C)C)C1=O)O2 (stereo not given) | 4
* CC(=O)N1c2ccccc2Sc2c1ccc1ccccc21 | 2

input: Would you kindly share the measured growth inhibition for "CC(C)C(=O)N1Cc2cc(Cl)cc(Cl)c2OC(=O)c2ccccc21" ?
output: 4

input: Would you kindly share the measured growth inhibition for "OCCN1CCN(CCCN2c3cc(Cl)ccc3Sc3ccsc32)CC1" ?
output: -7

input: Would you kindly share the measured growth inhibition for "CCn1nc(-c2ccccc2)c2c1N(C)c1ccccc1-n1c(-c3ccccc3)nnc1-2" ?
output: 7

input: Would you kindly share the measured growth inhibition for O=C1C2CCCC3CCCC(C(=O)N1O)C32 (stereo not given) ?
output: 87

input: Would you kindly share the measured growth inhibition for "CC(=O)N(C1=C(Cl)C(=O)c2ccccc2C1=O)c1ccc(C)cc1" ?
output: 100

###

Below, each entry is listed alongside its reported growth inhibition.
- Assay Overview: NCI Yeast Anticancer Drug Screen. Data for the bub3 strain (AID 167)
- Condition Info: S. cerevisiae bub3 mutant strain, at 5.0 µM (retest, dose inferred, filed as 0.5), stronger effect = higher value
Compounds without any hit were thinned out: in the full panel of roughly 79,000, 15% have a hit.
Hi! Could you send only the number? It should be in %, unit omitted.

* COC(=O)CCN1c2ccccc2Sc2ccccc21 | 16
* Cc1ccc(O)c(C(C)(C)c2ccccc2)c1 | -49
* Nc1ccccc1SC(/C=C/NNC1=NC(c2ccccc2)C(c2ccccc2)=NN1)c1ccccc1 (centres undefined) | 30
* O=C(NNc1ccccc1)C(O)C(O)C(O)C(O)C(O)C(O)C(O)CO (centres undefined) | 1
* CC(=O)C1C(=O)C=C(C)OC1=O (centres undefined) | 0
* Oc1ccc(Cc2cc(Cl)cc(Cl)c2O)cc1Cl | 70
* CCN(CC)CCNc1cc(C)nc2c1ccc1c2ccc2c(NCCN(CC)CC)cc(C)nc21 | -2
* COC(=O)N/N=C(/CC1(O)C(=O)Nc2ccccc21)c1ccc(Cl)cc1Cl (centres undefined) | 8
* O=C(O)c1c([N+](=O)[O-])cc(C(F)(F)F)cc1[N+](=O)[O-] | 1
* O=C(CCl)N1CCN(C(c2ccccc2)c2ccccc2)CC1 | 13

input: Would you kindly share the measured growth inhibition for "CCc1nc2ccc(N=NN(C)C)cc2[nH]1" ?
output: 18

input: Would you kindly share the measured growth inhibition for "CCCCOC(=O)C(=O)/C(=C/N1C(=O)/C(=C/C(C)=C/c2ccccc2)SC1=S)C(=O)C=C(C)C" ?
output: -10

input: Would you kindly share the measured growth inhibition for "Cc1ccc(C(C)(C)C)c(O)c1O" ?
output: -9

input: Would you kindly share the measured growth inhibition for "Cc1cccc(C)c1O" ?
output: 3

input: Would you kindly share the measured growth inhibition for CCCCCCCCCC1OCC(C)O1 (centres undefined) ?
output: 7

input: Would you kindly share the measured growth inhibition for "Clc1nnc(Cl)s1" ?
output: 5

input: Would you kindly share the measured growth inhibition for CC(C(=O)O)C(N)C(=O)O (centres undefined) ?
output: 4

input: Would you kindly share the measured growth inhibition for "FC(F)(F)c1cccc(COCCN2CCN(Cc3cccc(C(F)(F)F)c3)CC2)c1" ?
output: 29

###

- Assay Overview: NCI Yeast Anticancer Drug Screen. Data for the mlh1 rad18 strain (AID 175)
- Condition Info: S. cerevisiae mlh1 rad18 strain growth inhibition; at 5.0 µM (retest, dose inferred, filed as 0.5); stronger effect = higher value
This is part of a sample that, as a whole, favours compounds with a hit. Of some 79,000 tested, about 15% had one in any assay.
Observed Property: growth inhibition (%)
Hi! Could you send only the number? It should be in %, unit omitted.

Solved cases (4 shown):
• NC1CCCCC1N.O=S(=O)([O-])CCCN1CCOCC1.O=S(=O)([O-])CCCN1CCOCC1.[Pt+4] = 20
• O=C1OC(=O)c2cccc3cccc1c23 = 57
• CC/C(=C(/CC)c1ccc([O-])cc1)c1ccc([O-])cc1.CC/C(=C(\CC)c1ccc([O-])cc1)c1ccc([O-])cc1.O=C([CH-]C(=O)c1ccccc1)c1ccccc1.O=C([CH-]C(=O)c1ccccc1)c1ccccc1.O=C([CH-]C(=O)c1ccccc1)c1ccccc1.O=C([CH-]C(=O)c1ccccc1)c1ccccc1.[Ti+4].[Ti+4] = 94
• N#CC(Br)(C#N)Cc1ccccc1 = -10

input: Would you kindly share the measured growth inhibition for "Cn1c(=S)sc2nc3ccccc3n2c1=S" ?
output: 54

input: Would you kindly share the measured growth inhibition for CC[C@@]1(O)C[C@H](OC2CC(N(C)C)C(OC3CC(O)C(OC4CCC(=O)C(C)O4)C(C)O3)C(C)O2)c2c(cc3c(c2O)C(=O)c2c(O)cccc2C3=O)[C@H]1C(=O)OC (stereo not given in full) ?
output: 97

###

- Assay Overview: NCI Yeast Anticancer Drug Screen. Data for the rad50 strain (AID 155);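 also: 0% = growth of vehicle-only cultures of the same strain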
- Condition Info: S. cerevisiae rad50 strain growth inhibition; at 50.0 µM (retest, dose inferred, filed as 5.0); stronger effect = higher value
The panel holds about 79,000 compounds, 15% with a hit somewhere; the sample as a whole holds those more often. Calls of active or inactive are those of the source. Cut-off read from the data, not from the text of the source: active = growth inhibition above about 70%; inactive = the rest.
Below, each entry is listed alongside its reported growth inhibition.

Solved cases (6 shown):
* O=C1C(C(O)(C(F)(F)Cl)C(F)(F)Cl)CCCC1C(O)(C(F)(F)Cl)C(F)(F)Cl (stereo unspecified) | 99% (active)
* Nc1nc(-c2ccccn2)cc2cc(Cl)ccc12 | 99% (active)
* CN(C)C1C[C@@H](O[Si](C)(C)C(C)(C)C)C=C1S(=O)(=O)c1ccccc1 (stereo partly specified) | 100% (active)
* O=C(CNc1ccccc1[N+](=O)[O-])Nn1c(-c2ccccc2)nc2ccccc2c1=O | 36% (inactive)
* CN(C)C(=S)/N=c1\ss/c(=N\C(=S)N(C)C)n1-c1ccc(Cl)cc1 | 9% (inactive)
* Cc1ccc2c(c1)nc1n2C(N)=Nc2ccccc2S1 | 47% (inactive)

input: Would you kindly share the measured growth inhibition for CC1CCC(SC2CC(=O)CCC2=O)CC1 (stereo unspecified) ?
output: 98% (active)

input: Would you kindly share the measured growth inhibition for "CCn1c(C)cc(=O)n1-c1ccc([N+](=O)[O-])cc1" ?
output: -148% (inactive)

input: Would you kindly share the measured growth inhibition for "CC(C)(c1cc(Br)c(O)c(Br)c1)c1cc(Br)c(O)c(Br)c1" ?
output: 97% (active)

input: Would you kindly share the measured growth inhibition for "O=C(Nc1ccc(F)cc1)N1CCCCC1" ?
output: 43% (inactive)

input: Would you kindly share the measured growth inhibition for "CC(C)=CCc1c2c(c3occ(-c4ccc(O)c(O)c4)c(=O)c3c1O)C=CC(C)(C)O2" ?
output: 90% (active)

input: Would you kindly share the measured growth inhibition for CC1(C)C[C@H]2C=C(C=O)[C@]34C[C@]3(C(=O)OC4O)[C@H]2C1 (stereo partly specified) ?
output: 99% (active)

input: Would you kindly share the measured growth inhibition for O=S1(=O)c2ccccc2C(O)(c2ccccc2)c2cc3ccccc3n21 (stereo unspecified) ?
output: 95% (active)

input: Would you kindly share the measured growth inhibition for O=C(O)C1OC(Oc2ccc3oc4ccccc4c(=O)c3c2)C(O)C(O)C1O (stereo unspecified) ?
output: 91% (active)

input: Would you kindly share the measured growth inhibition for "O=C(O)c1c[nH]c2cc(Cl)ccc2c1=O" ?
output: -5% (inactive)

input: Would you kindly share the measured growth inhibition for "C=CS(=O)(=O)c1ccc([N+](=O)[O-])cc1" ?
output: 98% (active)
